Cited source for all entries: patent US20210363269A1

List of koff values.
# assay system: T1, mouse 129 SIRP-α D1 domain (mouse (129 strain), UniProt P97797 32-150)
# T1 construct: also called m129
# T1 chain: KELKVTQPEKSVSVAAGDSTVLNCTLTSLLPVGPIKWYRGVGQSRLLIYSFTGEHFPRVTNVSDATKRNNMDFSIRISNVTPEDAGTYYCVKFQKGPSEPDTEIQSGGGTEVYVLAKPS
# assay protocol: SPR, Langmuir fit
outcome measure: koff (s⁻¹)

[
  {
    "binder": "S206 (scFv, V domains shown) VH: DVQLVESGGAVVRPGETLRLSCTASGFTFSSYAMSWVRQAPGKGLEWVSGISASGSDTYYADSVKGRSTISRDNSKNTLYLRMSSLTAEDTAVYYCARETWNHLFDYWGLGTLVTLSS VL: ALTQPASVSANPGETVKITCSGGGTSSYYGWYQQKSPGSAPVTLIHSDDKRPSDIPSRFSGSASGSTATLTITGVQAEDEAVYYCGGYDYTTYVNTFGAGTTLTVL",
    "reported value": 0.000901
  },
  {
    "binder": "S26 (scFv, V domains shown, also called clone 26) VH: DVQLVESGGGVVRPGESLRLSCAASGFTFSTYAMSWVRQAPGKGLEWVSGISASGSGTYYGDSVKGRFTMSRDNSKNTLYLQMNSLTAEDTAVYYCARETWNHLFDYWGLGTLVTVSS VL: ALTQPASVSANLGGTVEITCSGGSSSYYGWYQQKSPGSAPVTVIYSDNQRPSDIPSRFSGSASDSTATLTITGVQVEDEAIYYCGGYDSSTYANTFGAGTTLTVL",
    "reported value": 0.00108
  },
  {
    "binder": "S76 (scFv, V domains shown, also called clone 76) VH: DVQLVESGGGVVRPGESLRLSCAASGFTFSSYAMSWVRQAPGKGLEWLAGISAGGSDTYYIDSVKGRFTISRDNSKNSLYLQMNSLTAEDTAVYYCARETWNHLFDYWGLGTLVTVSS VL: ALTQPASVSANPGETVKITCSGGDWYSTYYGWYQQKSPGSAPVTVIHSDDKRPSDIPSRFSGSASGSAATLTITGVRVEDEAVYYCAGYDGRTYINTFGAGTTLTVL",
    "reported value": 0.000179
  }
]
